experimentSummary: Aqueous solubility by HPLC analysis
Format: physicochemical
reportedConditions: water, thermodynamic from solid
Where a name gives a salt, the structure may show the parent alone.
measuredAttribute: solubility (µg/mL)
# unit: µg/mL | format: bare number

q: Given the entry Cc1ccc(C(=O)Nc2ccc(CN3CCN(C)CC3)c(C(F)(F)F)c2)cc1C#Cc1cnc2cccnn12 [Form 8, ponatinib hydrochloride] , report its measured solubility.
a: 620
